Tested on: Calf thymus DNA
Test details: Binding affinity to calf thymus DNA assessed as hypochromic effect by UV-vis spectrophotometric method relative to control
Type: nucleic-acid assay
Parameters: concentration or dose not given beside the values
Study conditions: Bos taurus
Measured property: Activity (%)

> print(dat)
                               input.smiles           system  number
1  Fc1ccc2[nH]c(-c3ccc(Cn4cc(COc5ccc(-c6ccc(OCc7cn(Cc8ccc(-c9nc%10cc(F)ccc%10[nH]9)o8)nn7)cc6)cc5)nn4)o3)nc2c1  Calf thymus DNA      16
2  c1ccc2[nH]c(-c3ccc(Cn4cc(COCc5cn(Cc6ccc(-c7nc8ccccc8[nH]7)o6)nn5)nn4)o3)nc2c1  Calf thymus DNA      36
3  Cl.Cl.N=C(N)c1ccc2[nH]c(-c3ccc(Cn4cc(COCc5cn(Cc6ccc(-c7nc8cc(C(=N)N)ccc8[nH]7)o6)nn5)nn4)o3)nc2c1  Calf thymus DNA      37
4  c1ccc2[nH]c(-c3ccc(Cn4cc(COc5ccc(-c6ccc(OCc7cn(Cc8ccc(-c9nc%10ccccc%10[nH]9)o8)nn7)cc6)cc5)nn4)o3)nc2c1  Calf thymus DNA      14
5  Cl.Cl.c1cc2[nH]c(-c3ccc(Cn4cc(COCc5cn(Cc6ccc(-c7nc8cc(C9=NCCN9)ccc8[nH]7)o6)nn5)nn4)o3)nc2cc1C1=NCCN1  Calf thymus DNA      28
6  Fc1ccc2[nH]c(-c3ccc(Cn4cc(COCc5cn(Cc6ccc(-c7nc8cc(F)ccc8[nH]7)o6)nn5)nn4)o3)nc2c1  Calf thymus DNA      35
7  CC(C)NC(=N)c1ccc2[nH]c(-c3ccc(Cn4cc(CCCc5cn(Cc6ccc(-c7nc8cc(C(=N)NC(C)C)ccc8[nH]7)o6)nn5)nn4)o3)nc2c1.Cl.Cl  Calf thymus DNA      24
8  Cl.Cl.N=C(N)c1ccc2[nH]c(-c3ccc(Cn4cc(COc5ccc(OCc6cn(Cc7ccc(-c8nc9cc(C(=N)N)ccc9[nH]8)o7)nn6)cc5)nn4)o3)nc2c1  Calf thymus DNA       9
